Every entry's value here was drawn from PubChem BioAssay (NCATS).

max response values by entry
Experiment: qHTS Assay for Lipid Storage Modulators (AID 1519)
Conditions: Drosophila S3 cells, BODIPY lipid droplet/cell ratio, laser cytometry; measured here: cell count channel max response; cells loaded with oleic acid
Results filed as inconclusive are left out.

smiles.str: CNc1nc(-c2ccccc2CN(C)C)nc2ccccc12
unit.descriptor: %
max response: 7.86
//
smiles.str: CN(C)c1ncc2nc(-c3ccc(F)cc3)c(=O)n(C[C@H]3CCCO3)c2n1
unit.descriptor: %
max response: 12.6
//
smiles.str: c1nc(NC2CCNCC2)c2cc(-c3ccc4c(c3)OCO4)ccc2n1
unit.descriptor: %
max response: 1.52
//
smiles.str: COc1ccc(NC(=O)N2CC3(CCN(C(=O)c4ccco4)CC3)C2)cc1
unit.descriptor: %
max response: 0.813
//
smiles.str: Cc1nc2cnc(N3CCOCC3)nc2n(CCC#N)c1=O
unit.descriptor: %
max response: 1.22
//
smiles.str: CNc1cc(-c2ccccc2CN(C)C)ncn1
unit.descriptor: %
max response: 7.6
//
smiles.str: O=C(Nc1ccccc1)N1CC[C@@]2(CCCN(C(=O)c3cnccn3)C2)C1
unit.descriptor: %
max response: 12.8
//
smiles.str: CC(=O)NCCNc1nc(-c2ccccc2Cl)nc2ccccc12
unit.descriptor: %
max response: 11.5
//
smiles.str: O=c1c(-c2cc(F)cc(F)c2)nc2cnc(N3CCNCC3)nc2n1Cc1cccs1
unit.descriptor: %
max response: -11.3
//
smiles.str: COc1ccccc1-c1cncnc1NCCc1cnc[nH]1
unit.descriptor: %
max response: 12.9
//
smiles.str: COc1ncc2nc(-c3ccc(F)cc3)c(=O)n(C3CC3)c2n1
unit.descriptor: %
max response: 16.8
